# experimental.system: SHIP2-Enz (S2-Enz) (Homo sapiens, UniProt O15357)
# Sequence (O15357 414-872): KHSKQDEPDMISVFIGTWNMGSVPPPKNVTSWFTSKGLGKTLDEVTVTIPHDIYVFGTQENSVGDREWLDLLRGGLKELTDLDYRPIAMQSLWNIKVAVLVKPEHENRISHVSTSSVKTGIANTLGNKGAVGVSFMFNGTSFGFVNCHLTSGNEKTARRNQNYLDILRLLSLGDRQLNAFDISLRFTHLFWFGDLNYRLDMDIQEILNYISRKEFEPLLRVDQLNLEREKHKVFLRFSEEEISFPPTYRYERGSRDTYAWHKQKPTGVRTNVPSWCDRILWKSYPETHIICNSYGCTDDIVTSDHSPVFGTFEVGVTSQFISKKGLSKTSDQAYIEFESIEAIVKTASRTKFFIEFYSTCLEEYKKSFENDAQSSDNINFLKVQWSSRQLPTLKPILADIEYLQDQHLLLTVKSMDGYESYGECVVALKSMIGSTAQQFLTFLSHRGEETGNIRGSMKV
# assay.name: fluorescence polarization PI
readout.name: EC50 (µM)

> print(dat)
                         chemical.structure  numeric.value
1  Cc1sc(S(=O)(=O)N2CCSCC2)cc1NC(=O)CNS(=O)(=O)c1ccc(F)cc1           1.17
